Entries and their protection
Tested on: Puccinia recondita
Assay: In vivo test on Puccinia recondita (brown rust)
Settings: dose of 500 ppm; wheat plants; grading 10 days after contamination
Give the number; % is assumed, so skip it.

A selection of reference data follows.
C=CC(C)n1cc(-c2ccncc2)c(-c2ccc(Cl)s2)n1 (racemic) [Example 61] ... 77
CC(C)Cn1ncc(-c2ccncc2)c1-c1ccc(Cl)s1 [Example 6] ... 70
Clc1ccc(-c2nn(C3CCC3)cc2-c2ccncc2)s1 [Example 18] ... 89
CC(C)n1cc(-c2ccncc2)c(-c2ccc(Cl)s2)n1 [Example 38] ... 72
FCCn1cc(-c2ccncc2)c(-c2ccc(Cl)s2)n1 [Example 62] ... 88
CC#CCn1cc(-c2ccncc2)c(-c2ccc(Cl)s2)n1 [Example 51] ... 75
COCn1cc(-c2ccncc2)c(-c2ccc(Cl)s2)n1 [Example 52] ... 97
CC(C)CCn1cc(-c2ccncc2)c(-c2ccc(Cl)s2)n1 [Example 17] ... 70

Consider now this further compound.
Return reported protection; argument: CC(=O)n1cc(-c2ccncc2)c(-c2ccc(Cl)s2)n1 [Example 86]
75

* * *

Tested on: Leptosphaeria nodorum
Assay: Leptosphaeria nodorum test (wheat) / protective
Type: in vivo
Conditions: 500 ppm active compound, protective spray, evaluated 7-9 days after inoculation
Experimental: Leptosphaeria nodorum Test (Wheat)/Protective Solvent: 49 parts by weight of N,N-dimethylformamide Emulsifier: 1 part by weight of alkylaryl polyglycol ether To produce a suitable preparation of active compound, 1 part by weight of active compound is mixed with the stated amounts of solvent and emulsifier, and the concentrate is diluted with water to the desired concentration. […]
result type: efficacy (%)
Give the number; % is assumed, so skip it.

A selection of reference data follows.
CC(=O)Nc1cc(-c2cn(C(C)C)nc2-c2ccc(Cl)s2)ccn1 ... 80
CCC(=O)Nc1cc(-c2c(-c3ccc(Cl)s3)nn(C)c2C)ccn1 ... 90
CC(C)Nc1nccc(-c2cn(C(C)C)nc2-c2ccc(Cl)s2)n1 ... 70

Return reported efficacy; argument: CC(=O)Nc1cc(-c2cn(C)nc2-c2ccc(Cl)s2)ccn1
80

Return reported efficacy; argument: CCn1cc(-c2ccnc(NC(=O)C3CC3)c2)c(-c2ccc(Cl)s2)n1
80

Return reported efficacy; argument: CCn1cc(-c2ccnc(N)c2)c(-c2ccc(Cl)s2)n1
78

Return reported efficacy; argument: CC(C)n1cc(-c2ccnc(NC(=O)C3CC3)c2)c(-c2ccc(Cl)s2)n1
80

Return reported efficacy; argument: CC(=O)N(C(C)=O)c1nccc(-c2cn(C(C)C)nc2-c2ccc(Cl)s2)n1
89

Return reported efficacy; argument: CCC(C)C(=O)Nc1cc(-c2cn(C(C)C)nc2-c2ccc(Cl)s2)ccn1 (stereo not drawn)
80

Return reported efficacy; argument: CC(=O)N(C(C)=O)c1cc(-c2cn(C(C)C)nc2-c2ccc(Cl)s2)ccn1
80

Return reported efficacy; argument: CC(C)CC(=O)Nc1cc(-c2cn(C(C)C)nc2-c2ccc(Cl)s2)ccn1
70

Return reported efficacy; argument: CCC(C)n1cc(-c2ccnc(Cl)c2)c(-c2ccc(Cl)s2)n1 (stereo not drawn)
70

Return reported efficacy; argument: CCC(C)n1nc(-c2ccc(Cl)s2)c(-c2ccncc2)c1C1CC1 (stereo not drawn)
70

Return reported efficacy; argument: CC(C)n1nc(C2CC2)c(-c2ccncc2)c1-c1ccc(Cl)s1
80

Return reported efficacy; argument: CCC(=O)Nc1nccc(-c2cn(C(C)C)nc2-c2ccc(Cl)s2)n1
89

Return reported efficacy; argument: CC(C)Cn1cc(-c2ccnc(NC(=O)C3CC3)c2)c(-c2ccc(Cl)s2)n1
90

Return reported efficacy; argument: CCn1cc(-c2ccnc(NC(C)=O)c2)c(-c2ccc(Cl)s2)n1
80

Return reported efficacy; argument: CCC(C)C(=O)Nc1cc(-c2cn(C)nc2-c2ccc(Cl)s2)ccn1 (stereo not drawn)
80
